Test system: HEK-293T
protocol text: Multiplex assay against HEK293T
Type: toxicity, cell-based
condition set: human, 12 h, 10 µM, compound concentration 10 uM, replicate 2
recorded metric: Population Pyknosed Nuclei (%)
One number for each entry, in %.

compound structure: COCC(=O)NC/C=C/c1ccc2ncnc(Nc3ccc(Oc4ccc(C)nc4)c(C)c3)c2c1
study system: HEK-293T
Population Pyknosed Nuclei (%): 75
--
compound structure: C=C1/C(=C\C=C2/CCC[C@]3(C)[C@@H]([C@H](C)/C=C/[C@H](C)C(C)C)CC[C@@H]23)C[C@@H](O)C[C@@H]1O
study system: HEK-293T
Population Pyknosed Nuclei (%): 56
--
compound structure: CCc1cccc(CC)c1NC(=O)c1nn(C)c2c1CCc1cnc(Nc3ccc(N4CCN(C)CC4)cc3OC)nc1-2
study system: HEK-293T
Population Pyknosed Nuclei (%): 6
--
compound structure: O=C(Nc1cccnn1)N1CCC(=Cc2cccc(Oc3ccc(C(F)(F)F)cn3)c2)CC1
study system: HEK-293T
Population Pyknosed Nuclei (%): 4
--
compound structure: COC(=N)c1nc2ccc3ncnc(Nc4ccc(OC)cc4F)c3c2s1
study system: HEK-293T
Population Pyknosed Nuclei (%): 5
--
compound structure: CCN1CCN(c2ccc(Nc3cc(N(C)C(=O)Nc4c(Cl)c(OC)cc(OC)c4Cl)ncn3)cc2)CC1
study system: HEK-293T
Population Pyknosed Nuclei (%): 5
--
compound structure: CCCn1c(=O)c2[nH]c(-c3cnn(Cc4cccc(C(F)(F)F)c4)c3)nc2n(CC)c1=O
study system: HEK-293T
Population Pyknosed Nuclei (%): 49
--
compound structure: CCCS(=O)(=O)c1nc(NC2CC2)cc(-c2ccc3c(ccn3C3CC(C)(C)NC(C)(C)C3)c2)n1
study system: HEK-293T
Population Pyknosed Nuclei (%): 74

Please give Population Pyknosed Nuclei (%) for each item listed below.
1. COc1ccc(S(=O)(=O)N(CCO)c2ccccc2CN(C)C/C=C/c2ccc(Cl)cc2)cc1.O=P(O)(O)O
2. CNc1cc(Oc2cc(C(=O)Nc3cc(N4CCN(C)CC4)cc(C(F)(F)F)c3)ccc2C)ncn1

output:
[6, 89]
